Assay details: Displacement of thioflavin-T from amyloid beta (1 to 40) aggregates by thioflavin-T fluorescent dye assay
Answer each item with its documented pIC50.
Scale note: pIC50 = -log10(concentration in M).

Request: I'd like to know its pIC50. The compound in question is `CN(C)c1ccc(/C=C/c2sc3ccccc3[n+]2Cc2cccc(OC(=O)c3ccccc3)c2)cc1`
Response: 6.64

Request: I have this compound here, `CN(C)c1ccc(/C=C/c2sc3cc(Cc4ccccc4)c(Cc4ccccc4)cc3[n+]2C)cc1` , and I need its recorded pIC50.
Response: 6.92

Request: Please report the recorded pIC50 for `CCCCCCC[n+]1c(/C=C/c2ccc(N(C)C)c3ccccc23)sc2ccccc21` .
Response: 6.80

Request: Look at this compound and give its reported pIC50. `CN(C)c1ccc(/C=C/c2sc3ccccc3[n+]2Cc2ccc(-c3ccccc3)cc2)cc1`
Response: 6.62

Request: So what does the record say about pIC50 for `CN(C)c1ccc(/C=C/c2sc3ccccc3[n+]2CCCC(c2ccccc2)c2ccccc2)cc1` ?
Response: 6.34

Request: Field request: pIC50 | item: `CN(C)c1ccc(/C=C/c2sc3ccc(F)cc3[n+]2C)cc1`
Response: 6.00

Request: Entry under review: `COc1ccc2c(c1)sc(/N=N/c1ccc(N(C)C)cc1)[n+]2C` . Reported pIC50?
Response: 6.39

Request: Value lookup for pIC50; key = `CN(C)c1ccc(/C=C/c2sc3ccccc3[n+]2Cc2ccc3ccccc3c2)cc1`
Response: 6.92

Request: Which measured pIC50 value corresponds to `COc1ccc2c(c1)sc(/C=C/c1ccc(N(C)C)cc1)[n+]2C` ?
Response: 6.52

Request: # lookup: pIC50 of `CN(C)c1ccc(/C=C/c2sc3ccccc3[n+]2Cc2ccc(F)cc2)cc1`
Response: 6.92

----------
So I've got a bunch of molecules here, and I need their IC50 values.
Assay details: Displacement of thioflavin-T from amyloid beta (1 to 40) aggregates by thioflavin-T fluorescent dye assay
Field format: number, assumed nM, no unit text.

Request: // lookup IC50 for `CN(C)c1ccc(/C=C/c2sc3ccccc3[n+]2CCCCCc2ccccc2)cc1`
Response: 170

Request: Need IC50, item `CC[n+]1c(/C=C/c2ccc(N(C)C)cc2)sc2ccccc21`
Response: 400

Request: Need IC50 of `CCCC[n+]1c(/C=C/c2ccc(N(C)C)cc2)sc2ccccc21` , thanks.
Response: 160

Request: // lookup IC50 for `CN(C)c1ccc(/C=C/c2sc3ccccc3[n+]2C)cc1`
Response: 1000

Request: IC50 for `Nc1ccc(/N=N/c2nc3ccccc3s2)c2ccccc12` ?
Response: 120

Request: Please report the recorded IC50 for `COc1ccc2nc(/N=N/c3ccc(N(C)C)cc3)sc2c1` .
Response: 3200

Request: Data request, read-out IC50, for `CN(C)c1ccc(/C=C/c2sc3ccc(F)cc3[n+]2Cc2ccccc2)cc1`
Response: 170

Request: Name the reported IC50 value associated with the molecule `COc1ccc2nc(/N=N/c3ccc(N(C)C)c4ccccc34)sc2c1`
Response: 2500

Request: Endpoint output: IC50 of `Cc1ccc2c(c1)sc(/C=C/c1ccc(N(C)C)cc1)[n+]2Cc1ccccc1` . Value?
Response: 130

Request: # lookup: IC50 of `CN(C)c1ccc(/N=N/c2sc3ccccc3[n+]2C)cc1`
Response: 1300

Request: # IC50 lookup, item `CN(C)c1ccc(/C=C/c2sc3c(Cc4ccccc4)c(Cc4ccccc4)ccc3[n+]2C)cc1`
Response: 210

Request: Query: IC50; subject: `CCCCCCC[n+]1c(/C=C/c2ccc(N(CC)CC)cc2)sc2ccccc21`
Response: 140

Request: What value of IC50 has been recorded for this entry: `CN(C)c1ccc(/C=C/c2sc3ccc(Cc4ccccc4)c(Cc4ccccc4)c3[n+]2C)cc1`
Response: 210

----------
Assay details: Displacement of thioflavin-T from amyloid beta (1 to 40) aggregates by thioflavin-T fluorescent dye assay
Value type: IC50 (nM)
Only the number, expressed in nM, is required.

Request: # get_value(readout='IC50', item= `CN(C)c1ccc(/N=N/c2nc3ccccc3s2)cc1` )
Response: 22000

Request: Please give the measured IC50 for this compound: `CN(C)c1ccc(/C=C/c2sc3cc([N+](=O)[O-])ccc3[n+]2C)cc1`
Response: 1000

Request: Fill in the blank: the reported IC50 of `CN(C)c1ccc(/C=C/c2sc3ccccc3[n+]2CCCC2CCCCC2)cc1` is ____.
Response: 120

Request: IC50 lookup needed for `CN(C)c1ccc(/C=C/c2sc3ccc(Cl)cc3[n+]2C)cc1` , thanks.
Response: 430

Request: Which IC50 is listed for `Cc1ccc2c(c1)sc(/C=C/c1ccc(N(C)C)cc1)[n+]2C` ?
Response: 180

Request: What does the record list as IC50 for `CCCCCCC[n+]1c(/C=C/c2ccc(N(C)C)cc2)sc2ccccc21` ?
Response: 93

Request: Using the record for `CN(C)c1ccc(/C=C/c2sc3ccccc3[n+]2CCCCCOc2ccccc2)cc1` , report its IC50.
Response: 170

Request: Tell me the measured IC50 of `CN(C)c1ccc(/C=C/c2sc3ccccc3[n+]2C/C=C/c2ccccc2)cc1` , please.
Response: 100

Request: Fill in the blank: the reported IC50 of `CCCCCCC[n+]1c(/C=C/c2ccc(N(C)C)cc2)sc2cc(OC)ccc21` is ____.
Response: 140

Request: Given the entry `COc1ccc2c(c1)sc(/C=C/c1ccc(N(C)C)c3ccccc13)[n+]2C` , report its measured IC50.
Response: 430

----------
Assay details: Displacement of thioflavin-T from amyloid beta (1 to 40) aggregates by thioflavin-T fluorescent dye assay
For each entry below, report its pIC50 value.
Recall that pIC50 is obtained by taking minus log10 of the concentration measured in molar.

Request: Could you tell me which pIC50 is on file for `CN(C)c1ccc(/C=C/c2sc3ccccc3[n+]2Cc2ccccc2)cc1` ?
Response: 6.96

Request: Quick check: pIC50 of `CN(C)c1ccc(/C=C/c2sc3ccccc3[n+]2Cc2cccc(Oc3ccccc3)c2)cc1` ?
Response: 6.92

Request: pIC50 lookup needed for `CCCCCCC[n+]1c(/C=C/c2ccc(-n3cccc3)cc2)sc2ccccc21` , thanks.
Response: 6.80

Request: Which pIC50 value is on record for `CN(C)c1ccc(/C=C/c2sc3ccccc3[n+]2CCCCOc2ccccc2)cc1` ?
Response: 6.77

Request: Record request: pIC50 value, item `CN(C)c1ccc(/C=C/c2sc3ccccc3[n+]2Cc2ccccc2-c2ccccc2)cc1`
Response: 7.00

Request: What measured pIC50 goes with `Cc1ccc2sc(/C=C/c3ccc(N(C)C)cc3)[n+](C)c2c1` ?
Response: 6.40

Request: // query pIC50 value for entry `CN(C)c1ccc(/C=C/c2sc3ccccc3[n+]2CCCOCc2ccccc2)cc1`
Response: 6.85

Request: Which pIC50 value belongs to `CCCCCCC[n+]1c(/C=C/c2ccc(N(CCCC)CCCC)cc2)sc2ccccc21` ?
Response: 6.22

Request: So what does the record say about pIC50 for `CN(C)c1ccc(/C=C/c2sc3ccccc3[n+]2CCCc2ccccc2)cc1` ?
Response: 6.70
